Cited source for all entries: paper PMC11593225

Tested on: INS-1E beta cells
MEASUREMENT_DESCRIPTION: MTT viability assay in INS-1E beta cells
Format: cell-based
EXPERIMENTAL_CONDITIONS: INS-1E; MTT; read-out: IC50, INS-1E cell viability
MEASUREMENT_LABEL: IC50
Param answer (str): number followed by unit.

Query :: For the molecule CCCCCCCCCCCCCCCC(=O)O [PAL, palmitate] , give its measured IC50 value.
Result :: 410 µM

====

SUBJECT_OF_TEST: SERCA1a (Oryctolagus cuniculus)
Construct: Sarcoplasmic reticulum (SR) vesicles were isolated from the fast-twitch skeletal muscle; from tissue; host or cells: rabbit fast-twitch skeletal muscle, sarcoplasmic reticulum vesicles
MEASUREMENT_DESCRIPTION: SERCA1a ATPase activity, NADH-coupled enzyme assay in sarcoplasmic reticulum vesicles
Assay type: biochemical, rabbit
EXPERIMENTAL_CONDITIONS: in the presence of MGX (3 mM); read-out: EC50, protection of SERCA1 activity against MGX
MEASUREMENT_LABEL: pEC50
Scale for pEC50: -log10 of concentration given in mol/L; no unit attached.

Query :: For the molecule Oc1ccc(/C=C/c2cc(O)cc(O)c2)cc1 [RES, Resveratrol] , give its measured pEC50 value.
Result :: 3.95

====

System: INS-1E beta cells
MEASUREMENT_DESCRIPTION: MTT viability assay in INS-1E beta cells
Format: cell-based
EXPERIMENTAL_CONDITIONS: MTT; read-out: IC50, INS-1E cell viability
MEASUREMENT_LABEL: IC50 (mM)
All answers are understood in mM, so give the number only.

Query :: # return IC50 of CC(=O)C=O [MGX, methylglyoxal] (system: INS-1E beta cells)
Result :: 2.54

====

SUBJECT_OF_TEST: SERCA1a (Oryctolagus cuniculus, UniProt P04191)
Construct: Sarcoplasmic reticulum (SR) vesicles were isolated from the fast-twitch skeletal muscle; from tissue; host or cells: rabbit fast-twitch skeletal muscle, sarcoplasmic reticulum vesicles
Sequence (P04191 1-994 isoform P04191-2): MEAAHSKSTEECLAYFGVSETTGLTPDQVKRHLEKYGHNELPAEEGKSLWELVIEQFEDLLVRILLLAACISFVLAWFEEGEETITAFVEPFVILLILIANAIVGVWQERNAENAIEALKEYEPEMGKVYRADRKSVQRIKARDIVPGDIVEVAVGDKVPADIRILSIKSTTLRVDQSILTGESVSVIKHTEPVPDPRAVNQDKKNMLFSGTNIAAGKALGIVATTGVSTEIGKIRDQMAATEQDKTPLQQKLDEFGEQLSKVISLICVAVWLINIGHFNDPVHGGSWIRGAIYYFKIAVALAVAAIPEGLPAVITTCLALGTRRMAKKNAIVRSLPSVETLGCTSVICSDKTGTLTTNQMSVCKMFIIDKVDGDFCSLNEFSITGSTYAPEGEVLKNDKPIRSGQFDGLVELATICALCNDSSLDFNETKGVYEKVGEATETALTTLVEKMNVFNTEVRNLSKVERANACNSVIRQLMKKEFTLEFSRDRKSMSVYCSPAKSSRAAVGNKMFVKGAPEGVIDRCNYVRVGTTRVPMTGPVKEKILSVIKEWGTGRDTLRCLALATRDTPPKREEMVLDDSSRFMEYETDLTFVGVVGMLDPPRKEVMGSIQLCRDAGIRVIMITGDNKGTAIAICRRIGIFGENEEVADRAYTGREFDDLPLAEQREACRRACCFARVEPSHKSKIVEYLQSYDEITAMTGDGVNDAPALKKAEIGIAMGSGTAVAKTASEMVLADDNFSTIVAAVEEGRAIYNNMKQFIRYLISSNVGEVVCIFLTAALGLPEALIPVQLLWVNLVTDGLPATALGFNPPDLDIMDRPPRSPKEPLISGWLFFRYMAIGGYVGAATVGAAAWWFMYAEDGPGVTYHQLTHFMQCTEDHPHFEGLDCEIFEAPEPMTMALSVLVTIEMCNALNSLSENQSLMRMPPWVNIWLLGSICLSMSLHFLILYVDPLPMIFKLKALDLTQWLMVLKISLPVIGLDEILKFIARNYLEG
MEASUREMENT_DESCRIPTION: SERCA1a ATPase activity, NADH-coupled enzyme assay in sarcoplasmic reticulum vesicles;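 note: rabbit fast-twitch skeletal muscle SR vesicles with Ca2+ ionophore A23187, ATP hydrolysis rate followed as NADH absorbance loss at 340 nm, 37 °C, started by 10 µM CaCl2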
Format: biochemical, rabbit
EXPERIMENTAL_CONDITIONS: SR vesicles, no stressor; read-out: EC50, SERCA1a activation
MEASUREMENT_LABEL: pEC50
Scale for pEC50: -log10 of concentration given in mol/L; no unit attached.

Query :: For the compound O=c1oc2c(O)c(O)cc3c(=O)oc4c(O)c(O)cc1c4c23 [EA, Ellagic acid] , give its measured pEC50 value.
Result :: 4.48

Query :: For the compound CCCCC[C@H](O)CC(=O)CCc1ccc(O)c(OC)c1 [GIN, [6]-Gingerol] , give its measured pEC50 value.
Result :: 4.43
